Source of measurements: PubChem BioAssay (NCI)

# Tested on: M14 melanoma
# Assay overview: NCI-60 one-dose screen, 48 h (100 = growth as untreated, 0 = no growth, -100 = all killed)
# Setup conditions: 10 µM
About 83,000 compounds went through this panel and 20% of them were active in at least one assay; those are over-represented in the sample as a whole.
For each entry below, report its growth value.
Express the result in % but write the number alone.

Value lookup for growth; key = `Cc1cc(C(C)(C)C)cc(C)c1Br`
98.5

For the compound `Cc1cc(NC(=O)CSCC(=O)O)no1` , what growth is on record?
99.6

Name the reported growth value associated with the compound `CCOC(=O)c1coc(C(=O)OCC)c1C(=O)OCC`
120

Tell me the measured growth of `O=[N+]([O-])c1ccc(Cl)c(S(=O)(=O)O)c1` , please.
107

What value of measured growth is listed for c1cc[n+](C2c3ccccc3C([n+]3ccccc3)c3ccccc32)cc1 (stereo unspecified) ?
96

Tell me the measured growth of `NC(=S)NN=C1CCCC1` , please.
83.1

Requested field: growth. Item: `O=C(Cc1nc2ccc([N+](=O)[O-])cc2nc1CC(=O)c1cccnc1)c1cccnc1`
82.8

Give the measured growth of `Cc1nc2ccccc2c2nnc(SCC(=O)N(Cc3ccccc3)c3ccccc3)n12` .
119

What does the data say about its growth? Entry: `O=C(NCCNC(=O)c1ccc(Cl)cc1Cl)c1ccc(Cl)cc1Cl`
105

Recorded growth for COc1cc(C2c3cc4c(cc3C3OC(=O)C2C3CO)OCO4)cc(OC)c1OC (stereo unspecified) , please?
12.1

Value lookup for growth; key = `CC1=CC(=O)c2ccccc2C1=O`
107

Report growth for O=P(O)(O)OCC(O)CO (stereo unspecified) please.
101

Item under review: `COC(=O)c1cc(-c2ccc(Cl)c(Cl)c2)[nH]c(=O)c1C#N` . Reported growth?
99.2

Query (compound): `CCNc1nc2c(cnn2C)c(=O)[nH]1` ; field requested: growth
99.3

For the compound shown here, CC1(C(N)=O)CCC(C(=O)O)C1(C)C (stereo unspecified) , give the reported growth.
108

Consider the compound shown here: `C/C(=C\c1ccc([N+](=O)[O-])cc1)C(=O)O` What is its recorded growth?
95.1

Please look up its growth: `Cc1cc(=O)n(-c2ccc(F)cc2)[nH]1`
108

Endpoint output: growth of CC1CC(O)C2C3(C)CCCC2(COC3=O)C12CCC1(CCOC1=O)O2 (stereo unspecified) . Value?
96.8

What does the data say about its growth? Entry: COc1ccc(Oc2c(I)cc(CC(NC(C)=O)C(=O)O)cc2I)cc1 (stereo unspecified)
80.8

Can you share its growth? I mean this compound: `COc1cc(C(=O)N/N=C/c2cccc([N+](=O)[O-])c2)cc(OC)c1OC`
29.9

State the recorded growth for this entry: `CC(C)(N)COS(=O)(=O)O`
98.1

Look up growth for this compound: `Nc1ccc(CC(=O)O)c(N)c1`
100

I have this compound here, `NC(=S)CN1CCOCC1` , and I need its recorded growth.
120

Endpoint output: growth of `NC(=S)N/N=C/c1ccc(N)cc1` . Value?
98.4

// lookup growth for `Cc1cccc(CO)c1`
108

Look up growth for this compound: `c1cc2cccc3c4cccc5cccc(c(c1)c23)c54`
106

Fill in: growth of `c1ccc2c(N3CCCCC3)ncnc2c1` is ___
100

Fill in: growth of `CNC(=O)c1ccccc1CC1(O)c2ccccc2Oc2ccccc21` is ___
42.2

Query: growth; subject: `CCOC(=O)c1cc(/C=C/c2ccc(Cl)cc2Cl)on1`
56

Name the recorded growth for `O=C(O)c1ccc(S(=O)(=O)O)cc1` .
117

Give its growth value. Item: `CSC(=N\N=C\c1ccc(N(C)C)cc1)/N=C/N(C)C`
104

* * *

# Tested on: SNB-75 CNS
# Assay overview: NCI-60 one-dose screen, 48 h (100 = growth as untreated, 0 = no growth, -100 = all killed)
# Setup conditions: 10 µM
This is part of a sample that, as a whole, favours compounds with a hit. Of some 83,000 tested, about 20% had one in any assay.
Quantity: growth (%)
Quick reminder: number only, in %, skip the unit.

Any idea what growth was measured for `O=C(O)COCC(=O)O` ?
81.4

What growth value was documented for this molecule, `CCCC(=O)Nc1ccc2c(c1)CN1C(=O)c3ccccc3C1=N2` ?
104

Query: growth; subject: `O=c1[nH][nH]c(=O)c2cc([N+](=O)[O-])ccc12`
83.4

* * *

# System: MCF7 breast
# Assay overview: NCI-60 one-dose screen, 48 h
# Setup conditions: 10 µM unless noted
This is part of a sample that, as a whole, favours compounds with a hit. Of some 83,000 tested, about 20% had one in any assay. Calls of active or inactive are those of the source. Rule for the calls: active = growth percent below 10; inactive = the rest.
Reply using exactly one outcome from active, inactive

Look up the recorded call for CC1CC(O)CC(C)(C)C1 (centres undefined) in this test.
inactive

Lab log entry: `Cc1nc2ccccc2c(C(=O)O)c1O` — outcome as called in the assay?
inactive

Can you look up the reported call for `COC(=O)Nc1nc2ccc(C(=O)c3cccs3)cc2[nH]1` for me?
inactive

Status in this test for C/C=C/CC(C)C(O)C1C(=O)NC(CC)C(=O)N(C)CC(=O)N(C)C(CC(C)C)C(=O)NC(C(C)C)C(=O)N(C)C(CC(C)C)C(=O)NC(C)C(=O)NC(C)C(=O)N(C)C(CC(C)C)C(=O)N(C)C(CC(C)C)C(=O)N(C)C(C(C)C)C(=O)N1C (centres undefined) ?
inactive

Call for entry O=C(O)C(c1ccccc1)C(O)c1ccccc1 (centres undefined) :
inactive

Test call, this compound: `CCCC(=O)c1cc(C)ccc1OC`
inactive

Recorded test call requested for `COC(=O)c1ccc(C(C)C)cc1`
inactive

Tell me the recorded outcome of this test for `CN(C)c1ccc2oc(=O)c3ccccc3c2c1` .
inactive

Recorded call for `CC(=O)N(C)c1ccc([N+](=O)[O-])cc1` ?
inactive

Assay result, entry `O=[N+]([O-])c1cccc(C(F)(F)F)c1` — outcome?
inactive

What call does the record list for `CN(C)CCN(C)CC(C)(C)C(=O)/C=C/c1ccc(Cl)cc1` ?
active

Called result for `CCN=c1cc2sc3cc(NCC)c(C)cc3nc-2cc1C`
active

Recorded call for `CN(C)CCN(Cc1ccccc1)c1ccccc1` ?
inactive

I'd appreciate the recorded outcome for `Cc1cccc(C(=O)N(C(C)C)C(C)C)c1` from this test.
inactive

* * *

Field: growth. Provide a value for each of the compounds that follow.
# System: SK-MEL-2 melanoma
# Assay overview: NCI-60 one-dose screen, 48 h (100 = growth as untreated, 0 = no growth, -100 = all killed)
# Setup conditions: 10 µM
This is part of a sample that, as a whole, favours compounds with a hit. Of some 83,000 tested, about 20% had one in any assay.
# value in %; strip the unit string

For `CCOC(=O)/C(=C/c1ccc(OC)cc1)N(CC)CC` , what is its reported growth?
103

Return reported growth; argument: `CCOc1ccc(/C=N/N=C(N)N)cc1OCC`
113

What value of growth has been reported for the following compound? `CC(C)=NNc1ccc([N+](=O)[O-])cc1[N+](=O)[O-]`
113

What growth value was documented for this compound, `Cc1ccc(CCCC(=O)O)c(C)c1` ?
91.1

# query: growth of entry `C[N+](C)=c1ccc2nc3c(cc(Nc4ccccc4)c4ccccc43)oc-2c1`
10.9

Given the compound `CCCCCCCCOC(=O)c1ccccn1` , what is its reported growth?
103

Looking for the measured growth of `O=C(N/N=C/c1ccccc1O)Nc1nn[nH]n1` , can you help?
110

Can you share its growth? I mean this compound: `c1ncc2[nH]cnc2n1`
84.6

What growth value was documented for this compound, `C/C(=N\NC(=O)c1ccccc1N)c1ccccc1O` ?
71.2

Can you look up the measured growth of `CCOC(=O)c1[nH]c(C)c(C(=O)O)c1C` for me?
124

Return reported growth; argument: CCN(CC)CCCC(C)Nc1ccnc(/C=C/c2ccc(Cl)cc2)c1 (stereo not given)
-69.4

Which growth value belongs to `CC(=O)OCCO` ?
143

growth lookup needed for `C#Cc1cccc(NC(=O)c2ccc(Cl)cc2Cl)c1` , thanks.
98.6

For `NC(N)=Nc1cc2ccccc2c2ccccc12` , what is its reported growth?
108

Recorded growth for `COC(=O)c1[nH]c(=O)c(C#N)c(C(=O)OC)c1C(=O)c1ccccc1` , please?
114

* * *

Provide the recorded growth for the entries that follow.
# Tested on: OVCAR-4 ovarian
# Assay overview: NCI-60 one-dose screen, 48 h (100 = growth as untreated, 0 = no growth, -100 = all killed)
# Setup conditions: 10 µM
Compounds without any hit were thinned out: in the full panel of roughly 83,000, 20% have a hit. The source made the active and inactive calls. The calls were made as follows: active = growth percent below 10; inactive = the rest.

Can you share its growth? I mean this compound: CC(=O)OCCC(C)CCC=C(C)C (centres undefined)
107% (inactive)

// lookup growth for `CCOC(=O)CCCC(=O)OCC`
101% (inactive)

I have this compound here, `CC(=O)c1cc2c(cc1F)C(C)(C)CCC2(C)C` , and I need its recorded growth.
103% (inactive)

Query: growth; subject: `CC(=O)NCc1cc(C)c(C)cc1C`
106% (inactive)

Returns the measured growth for the input compound. Input: `Nc1ccc(NC(=O)c2cccc(N)c2)cc1`
104% (inactive)

Fill in the blank: the reported growth of `O=C(/C=C/C(=O)c1ccccc1)c1ccccc1` is ____.
108% (inactive)

Name the reported growth value associated with the compound `Cc1ccncc1C(N)=O`
96.8% (inactive)

# growth lookup, item CC1(C)/C(=C\CO)C2CCC1C2 (centres undefined)
111% (inactive)

# lookup: growth of `CSc1[nH]c(=O)ncc1F`
102% (inactive)

Data request, read-out growth, for `Nc1ccc(C(=O)c2ccc(N)c(Br)c2)cc1Br`
49.1% (inactive)

For the compound shown here, `CCOC(=O)C1=C(Nc2ccc(Br)cc2)C(=O)N(CC)C1` , give the reported growth.
93.7% (inactive)

Data request, read-out growth, for `C=C[Si](OC(C)=O)(OC(C)=O)OC(C)=O`
110% (inactive)

I would be grateful if you could share the reported growth for `Cc1ccc(S(=O)(=O)O)c(C)c1` .
86.5% (inactive)

Requested field: growth. Item: CCCCCCCCCCCCCCCCC1CC(=O)OC1=O (centres undefined)
108% (inactive)

Record request: growth value, item `NNc1ccccc1C(=O)O`
111% (inactive)

Tell me the measured growth of `Cc1cc(Cc2cc(C)c(N)cc2N)c(N)cc1N` , please.
111% (inactive)

Entry `COC(=O)Nc1cccc(Cl)c1OC` : reported growth = ?
111% (inactive)

Give the measured growth of `COc1cc(/C=C/C(=O)c2ccccc2)cc(OC)c1OC` .
65% (inactive)

So what's the measured growth for this one? `CCOC(=O)c1cc(/C=C/c2ccc(Cl)cc2Cl)on1`
76% (inactive)

Need growth of `C/C(=N\NC(=O)c1ccccc1N)c1ccccc1O` , thanks.
6.68% (active)

Item under review: `Nc1ncnc2[nH]ncc12` . Reported growth?
-5.84% (active)

Fill in: growth of `CC(=O)OCC(=O)[C@@]1(O)CC[C@H]2[C@@H]3CC[C@@H]4C[C@H](O)CC[C@]4(C)[C@H]3C(=O)C[C@@]21C` is ___
116% (inactive)

I am curious: what growth value has been reported for `C/C(=C\c1ccc([N+](=O)[O-])cc1)C(=O)O` ?
99.2% (inactive)

Reported growth, compound `CCOC(=O)CCCS(C)(=O)=O` : ____
103% (inactive)

Quick one: growth for `CCO/C=C1\SC(=S)N(c2cccc(C)c2)C1=O` ?
100% (inactive)

Requested read-out: growth. Entry: CC1CC(O)CC(C)(C)C1 (centres undefined)
116% (inactive)

Using the record for `COc1cc([C@@H]2c3cc4c(cc3[C@H](O)[C@H]3COC(=O)[C@H]23)OCO4)cc(OC)c1OC` , report its growth.
26.9% (inactive)

Give its growth value. Item: CC(=O)OC(C(=O)O)c1ccccc1 (centres undefined)
118% (inactive)

For `CC(=O)Nc1c(C)cc(C)cc1C` , what is its reported growth?
95.9% (inactive)

Form field: reported growth of `CC(C)=CC(=O)OC(=O)C=C(C)C`
119% (inactive)

What value of growth has been reported for the following compound? `O=[N+]([O-])c1ccc(N=Nc2ccc(O)c3ccccc23)cc1`
40.1% (inactive)

Can you share its growth? I mean this compound: `COc1cc2c3c(n(C)c(=O)c2cc1OC)-c1cc2c(cc1C3=O)OCO2`
55.8% (inactive)

I have this compound here, CC1C(=O)c2ccccc2CC1C(=O)O (centres undefined) , and I need its recorded growth.
108% (inactive)

Please give the measured growth for this compound: `COc1cccc(O)c1O`
96.3% (inactive)

Which growth is listed for `O=C1c2ccccc2C(=O)N1OCc1ccccc1` ?
105% (inactive)

Need growth of `O=S(=O)(Cc1ccccc1)c1ccccc1` , thanks.
98.1% (inactive)

Recorded growth for `c1ccc(Sc2ccccc2)cc1` , please?
111% (inactive)

Could you tell me which growth is on file for `COc1cc2cc(OC(C)=O)c3cc4c(cc3c2c(OC)c1OC)OCO4` ?
111% (inactive)

Fill in: growth of COc1cc(C2NC(=O)C(C#N)=C(Nc3cccc(C)c3)S2)ccc1O (centres undefined) is ___
102% (inactive)

Looking for the measured growth of C#CC(C(C)C)N(CCO)CCCC (centres undefined) , can you help?
101% (inactive)

Need growth, item CCCC(C)OCC(=O)O (centres undefined)
84.8% (inactive)

# lookup: growth of `O=C1C=C(Nc2ccc([N+](=O)[O-])cc2)c2ccccc2C1=O`
45.3% (inactive)

Look up growth for this compound: CS(=O)CC1=NC(=N)N=C1CS(C)=O (centres undefined)
103% (inactive)

growth lookup needed for `O=[N+]([O-])c1ccc(-c2ncc(-c3ccc(Br)cc3)o2)cc1` , thanks.
97.3% (inactive)

Requested read-out: growth. Entry: `CC1=C(/C=C/C(C)=C/C=C/C(C)=C/CO)C(C)(C)CCC1`
112% (inactive)

Item `CCCCCCCCOC(=O)c1ccccn1` has what recorded growth?
104% (inactive)

For `CCOC(=O)CNN` , what is its reported growth?
106% (inactive)

Request the reported growth associated with `Cc1cc(/C=C/c2ccc3cc(N(C)C)ccc3[n+]2C)c(C)n1-c1ccccc1`
10.4% (inactive)

What does the data say about its growth? Entry: `CC(C)C(C#N)(C(C)C)C(C)C`
109% (inactive)
